Cited source for all entries: patent US20230295310A1

Biological target: T1, human CD3 expressed on cells (human, UniProt P07766 23-207; P04234 22-171; P09693 23-182)
T1 construct: whole, on cells; CD3 complex on Jurkat cells and on human primary T cells
T1 sequence (P07766 23-207, chain 1 of 3): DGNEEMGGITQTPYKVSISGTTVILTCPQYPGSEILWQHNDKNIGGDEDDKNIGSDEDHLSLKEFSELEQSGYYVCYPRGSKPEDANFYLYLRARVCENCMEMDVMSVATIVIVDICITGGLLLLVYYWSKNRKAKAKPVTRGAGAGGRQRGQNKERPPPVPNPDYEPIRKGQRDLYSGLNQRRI
T1 sequence (P04234 22-171, chain 2 of 3): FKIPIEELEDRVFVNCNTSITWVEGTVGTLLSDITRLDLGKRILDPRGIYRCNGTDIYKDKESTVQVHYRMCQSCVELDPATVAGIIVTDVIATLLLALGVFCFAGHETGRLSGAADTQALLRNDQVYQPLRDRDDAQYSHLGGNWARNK
T1 sequence (P09693 23-182, chain 3 of 3): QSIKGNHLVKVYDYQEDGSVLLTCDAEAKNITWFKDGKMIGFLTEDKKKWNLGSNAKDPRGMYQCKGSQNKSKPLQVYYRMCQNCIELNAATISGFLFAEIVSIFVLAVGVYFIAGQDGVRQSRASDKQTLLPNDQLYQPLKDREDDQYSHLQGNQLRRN
Assay: flow cytometry, 25 nM
Documented Jurkat Cell Binding (FOI) across a set of binders
Report the figure in FOI without appending any unit label.

binder: mAb 99 (antibody, V domains shown) VH: QGQLVESGGGVVQPGRSLRLSCAASGFTFRGFGMHWVRQAPGKGLEWVAIIYYDGKNKYYADSVKGRFTISRDNSKNTLYLQMNSLRAEDTAVYYCAKGGGYNWFDPWGQGTLVTVSS VL: DIQMTQSPSSLSASVGDRVTITCRASQSISTYLNWYQQKPGKAPKLLIYSASSLQSGVPSRFSGSGSGTDFTLTISNLQPEDFAIYYCQRSYSPPFTFGPGTKLDIR
Jurkat Cell Binding (FOI): 198

Pending binder:
Request: Data request, read-out Jurkat Cell Binding (FOI), for mAb 125 (antibody, V domains shown) VH: EVQLVESGGGLVKTGGSLRLSCVASGFSFKKAWMNWVRQAPGKGLEWVGRIKRNTDGGTADYAAPVKGRFTLSRDDSKKTLYLQMNSLKTEDTAVYYCTTLDSSSRYVGYYYMDVWGKGTTVTVSS VL: DIQMTQSPSSVSASVGDRVIITCRASQDINNWLAWYQQKPGKVPKLLIYTASSLQSGVPSRFSGSGSGTDFTLTIGTLQPEDFATYYCQQAHSLPITFGQGTRLDIK
Result: 185
